Where these numbers come from: ChEMBL document CHEMBL1158736

Subject Of Test: UniProtKB P08173
Sequence (P08173 whole entry): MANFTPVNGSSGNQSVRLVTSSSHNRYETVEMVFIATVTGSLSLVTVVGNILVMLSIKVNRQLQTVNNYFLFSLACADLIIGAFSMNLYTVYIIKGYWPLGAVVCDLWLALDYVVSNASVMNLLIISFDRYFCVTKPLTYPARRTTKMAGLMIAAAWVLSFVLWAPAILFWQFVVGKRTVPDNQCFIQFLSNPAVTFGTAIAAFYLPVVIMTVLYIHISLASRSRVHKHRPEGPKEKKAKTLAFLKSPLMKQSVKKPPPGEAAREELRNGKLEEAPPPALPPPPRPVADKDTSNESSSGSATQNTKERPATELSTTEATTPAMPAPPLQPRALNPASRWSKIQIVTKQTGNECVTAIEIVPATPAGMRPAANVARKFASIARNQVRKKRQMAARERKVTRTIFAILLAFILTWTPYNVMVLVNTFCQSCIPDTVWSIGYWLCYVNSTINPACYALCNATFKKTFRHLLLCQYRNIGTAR
Assay Readout: pIC50
Schema: pIC50 number; meaning minus log10 of the concentration expressed in molar units.

Ask | Returns the measured pIC50 for the input compound. Input: CC[C@@H](C)[C@@H](O)C(=O)OC[C@H]1CCN2CCC[C@@H]12
Reply | 6.30

====

Subject Of Test: Muscarinic acetylcholine receptor M5 (Homo sapiens, UniProt P08912)
Sequence (P08912 whole entry): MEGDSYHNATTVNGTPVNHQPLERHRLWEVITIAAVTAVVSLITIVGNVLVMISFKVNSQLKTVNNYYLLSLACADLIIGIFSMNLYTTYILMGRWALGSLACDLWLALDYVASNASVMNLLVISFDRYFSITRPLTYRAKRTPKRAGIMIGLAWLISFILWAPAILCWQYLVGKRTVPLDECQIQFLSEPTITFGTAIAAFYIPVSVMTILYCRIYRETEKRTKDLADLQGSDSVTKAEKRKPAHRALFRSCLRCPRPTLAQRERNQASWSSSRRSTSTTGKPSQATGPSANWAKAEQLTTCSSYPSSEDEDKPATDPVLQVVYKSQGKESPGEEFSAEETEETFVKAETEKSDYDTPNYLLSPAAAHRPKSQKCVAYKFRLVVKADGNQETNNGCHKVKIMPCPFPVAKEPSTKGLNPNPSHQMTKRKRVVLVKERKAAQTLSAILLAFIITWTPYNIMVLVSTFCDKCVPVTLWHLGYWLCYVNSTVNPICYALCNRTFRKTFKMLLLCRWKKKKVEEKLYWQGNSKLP
Assay Readout: IC50 (nM)
Your answer should be a plain number; it is taken to be in nM.

Ask | # get_value(readout= IC50, system= Muscarinic acetylcholine receptor M5 (Homo sapiens, UniProt P08912)) for CC[C@@H](C)[C@@H](O)C(=O)OC[C@H]1CCN2CCC[C@@H]12
Reply | 1220

====

Subject Of Test: UniProt:P20309
Sequence (P20309 whole entry): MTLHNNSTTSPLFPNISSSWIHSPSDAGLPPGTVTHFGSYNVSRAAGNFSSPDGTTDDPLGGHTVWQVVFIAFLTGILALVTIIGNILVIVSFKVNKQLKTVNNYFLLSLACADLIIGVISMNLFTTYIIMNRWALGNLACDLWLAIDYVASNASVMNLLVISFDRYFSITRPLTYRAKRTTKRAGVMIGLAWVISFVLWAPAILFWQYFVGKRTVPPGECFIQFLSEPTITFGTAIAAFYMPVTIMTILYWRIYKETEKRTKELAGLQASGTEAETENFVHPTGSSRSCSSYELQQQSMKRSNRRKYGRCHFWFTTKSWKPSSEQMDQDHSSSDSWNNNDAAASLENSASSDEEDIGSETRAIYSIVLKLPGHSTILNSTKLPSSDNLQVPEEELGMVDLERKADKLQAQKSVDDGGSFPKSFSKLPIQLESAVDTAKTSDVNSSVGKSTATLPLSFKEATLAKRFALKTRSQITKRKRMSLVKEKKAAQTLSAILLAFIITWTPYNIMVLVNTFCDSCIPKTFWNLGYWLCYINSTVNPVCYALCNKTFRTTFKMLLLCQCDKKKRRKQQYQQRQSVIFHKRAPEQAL
Assay Readout: IC50 (nM)
Hi! Could you send only the number? It should be in nM, unit omitted.

Ask | Give the reported IC50 for CC[C@@H](C)[C@@H](O)C(=O)OC[C@H]1CCN2CCC[C@@H]12 (system: UniProt:P20309).
Reply | 126
